- assay summary: Pharmacokinetic analysis in mouse plasma and brain after a single i.p. injection
- Type: in vivo
- condition parameters: both sexes, brain, intraperitoneal, wildtype mice P21-28, 10 mg/kg i.p., 60 min, n = 4, read-out: Brain concentration, average
- Description: A pharmacokinetic study was conducted for CID2921524 (MolPort; Riga, LVA) to determine the target experimental time point for the hyperthermia-induced seizure protocol. […] Plasma and brain samples were prepared for analysis of CID2921524 concentrations as previously described. […] Quantification was achieved by comparing experimental samples to standards prepared with known amounts of drug. Normality of each dataset was assessed using the Shapiro-Wilk test. […] RT-ddPCR data were analysed using two-way ANOVA. […]
measurement name: concentration at 60 min (ng/g)
Express the result in ng/g but write the number alone.

Q. Give the value of concentration at 60 min reported for the following: COc1ccc(CNCCC(c2ccccc2)c2ccc3c(c2)OCO3)cc1 (stereo not shown) [CID2921524]
A. 1210

// provenance: paper PMC9879440
